B1: Transcription elongation factor A N-terminal and central domain-containing protein, residues 30 to 77; numbered along this chain, Q8N8B7 (parent)
chain: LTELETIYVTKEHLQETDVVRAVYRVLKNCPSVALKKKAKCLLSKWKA

variants of: B1; test: abundance fitness (aPCA) (normalised: wild type 0, dead -1); higher = more abundant; growth selection in yeast, the domain comes from the species named; details: Homo sapiens
The following variants are shown together with reported abundance fitness values.

>  <MUTATION>
L43D

>  <abundance fitness>
-0.829

$$$$
>  <MUTATION>
C30F

>  <abundance fitness>
0.121

$$$$
>  <MUTATION>
C41V

>  <abundance fitness>
0.042

$$$$

Ask | Specify abundance fitness for V33L and stop.
Reply | 0.174

Ask | Specify abundance fitness for Y8F and stop.
Reply | -0.339

Ask | Specify abundance fitness for E12F and stop.
Reply | -0.742

Ask | Specify abundance fitness for E3K and stop.
Reply | -0.195

Ask | Specify abundance fitness for V23P and stop.
Reply | -0.833

Ask | Specify abundance fitness for E12P and stop.
Reply | -0.25

Ask | Specify abundance fitness for E16A and stop.
Reply | -0.017

Ask | Specify abundance fitness for V20C and stop.
Reply | -0.034

Ask | Specify abundance fitness for T6N and stop.
Reply | -0.514
